test system: Mus musculus; test: Effect on ATPA-induced rigidity in mouse dosed intravenously 30 mins before ATPA administration; type: functional; settings: iv
Measured ED50 values are reported for all entries that follow.
A number alone suffices; assume mg/kg.

# sample smiles, ED50 (mg/kg)
measured = [
    ("O=C(Nc1cccc(Br)c1)Nc1cc(Cl)ccc1-c1nnn[nH]1", 5.5),
]

Query molecule follows.
May I ask what ED50 has been recorded for O=C(Nc1cccc(Br)c1)Nc1cc(Cl)ccc1S(=O)(=O)O ?
29

###

Catalogue of IC50 readings, one per entry.
biological target: Glutamate receptor ionotropic, kainate 2 (Homo sapiens, UniProt Q13002); test: Antagonist activity at human homomeric GluR6 expressed in HEK293 cells assessed as inhibition of intracellular calcium concentration by FLIPR assay
Sequence (Q13002 whole entry): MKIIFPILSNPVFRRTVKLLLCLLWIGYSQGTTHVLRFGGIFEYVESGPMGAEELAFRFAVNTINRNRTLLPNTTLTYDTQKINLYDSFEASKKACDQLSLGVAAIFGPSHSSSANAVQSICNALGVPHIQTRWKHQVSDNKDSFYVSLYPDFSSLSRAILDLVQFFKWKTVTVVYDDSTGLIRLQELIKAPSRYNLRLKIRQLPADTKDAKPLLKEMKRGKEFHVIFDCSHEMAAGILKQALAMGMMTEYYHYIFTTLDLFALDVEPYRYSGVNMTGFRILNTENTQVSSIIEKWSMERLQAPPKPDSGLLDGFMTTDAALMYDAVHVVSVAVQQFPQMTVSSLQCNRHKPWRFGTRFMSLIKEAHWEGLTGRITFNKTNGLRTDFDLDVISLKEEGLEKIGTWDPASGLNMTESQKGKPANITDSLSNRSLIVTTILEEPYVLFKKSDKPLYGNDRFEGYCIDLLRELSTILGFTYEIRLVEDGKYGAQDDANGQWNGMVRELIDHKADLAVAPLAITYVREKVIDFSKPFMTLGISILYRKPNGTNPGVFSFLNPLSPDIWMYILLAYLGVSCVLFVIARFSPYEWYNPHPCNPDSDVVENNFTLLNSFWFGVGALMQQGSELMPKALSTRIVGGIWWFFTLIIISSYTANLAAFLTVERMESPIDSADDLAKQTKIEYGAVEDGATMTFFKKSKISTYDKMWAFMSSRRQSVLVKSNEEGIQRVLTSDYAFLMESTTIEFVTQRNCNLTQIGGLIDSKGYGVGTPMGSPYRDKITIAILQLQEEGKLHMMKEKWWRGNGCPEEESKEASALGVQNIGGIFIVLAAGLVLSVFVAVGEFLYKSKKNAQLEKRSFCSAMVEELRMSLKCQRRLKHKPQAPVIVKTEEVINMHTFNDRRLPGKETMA

# sample smiles, IC50
data = [
    ("O=C(Nc1cccc(Br)c1)Nc1cc(Cl)ccc1-c1nc(=O)o[nH]1", "> 30 µM"),
    ("O=C(Nc1cccc(Br)c1)Nc1cc(Cl)ccc1-c1nnn[nH]1", "> 10 µM"),
    ("O=C(O)Cc1ccc(Cl)cc1NC(=O)Nc1cccc(Br)c1", "> 50 µM"),
]

// switching to the query molecule
Sample O=C(Nc1cccc(Br)c1)Nc1cc(Cl)ccc1S(=O)(=O)O — what was its IC50?
37 µM

###

The entries below come with measured IC50 values attached.
molecular target: Glutamate receptor ionotropic, kainate 1 (Homo sapiens); assay: Antagonist activity at human homomeric GluR5 expressed in HEK293 cells assessed as inhibition of intracellular calcium concentration by FLIPR assay; assay type: functional, cell-based
Sequence (P39086 whole entry): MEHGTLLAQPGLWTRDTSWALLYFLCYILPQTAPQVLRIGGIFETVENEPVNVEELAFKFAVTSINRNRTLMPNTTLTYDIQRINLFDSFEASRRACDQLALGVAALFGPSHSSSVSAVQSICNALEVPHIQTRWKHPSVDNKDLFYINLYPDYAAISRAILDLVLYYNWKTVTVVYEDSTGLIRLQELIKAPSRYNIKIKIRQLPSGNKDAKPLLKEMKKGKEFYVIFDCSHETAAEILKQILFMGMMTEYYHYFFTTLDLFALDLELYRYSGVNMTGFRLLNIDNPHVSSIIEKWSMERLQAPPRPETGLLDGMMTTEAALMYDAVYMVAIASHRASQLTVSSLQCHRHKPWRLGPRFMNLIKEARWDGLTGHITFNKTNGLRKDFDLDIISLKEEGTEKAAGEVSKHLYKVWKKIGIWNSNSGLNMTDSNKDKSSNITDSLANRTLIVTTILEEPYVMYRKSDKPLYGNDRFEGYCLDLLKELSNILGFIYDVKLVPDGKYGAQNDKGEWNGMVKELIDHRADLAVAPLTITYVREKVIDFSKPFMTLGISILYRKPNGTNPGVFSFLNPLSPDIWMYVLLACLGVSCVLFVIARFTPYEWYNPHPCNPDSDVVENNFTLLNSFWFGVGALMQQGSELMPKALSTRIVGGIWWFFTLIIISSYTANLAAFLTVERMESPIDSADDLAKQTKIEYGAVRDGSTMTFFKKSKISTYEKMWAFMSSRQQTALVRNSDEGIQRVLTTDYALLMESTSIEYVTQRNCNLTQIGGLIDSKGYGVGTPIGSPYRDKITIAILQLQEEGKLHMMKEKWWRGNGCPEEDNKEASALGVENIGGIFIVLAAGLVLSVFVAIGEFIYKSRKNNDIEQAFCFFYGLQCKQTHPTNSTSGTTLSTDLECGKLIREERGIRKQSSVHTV

Record excerpt, results attached:
# sample smiles, recorded metric, assay result
data = [
    ("O=C(O)c1ccc(Cl)cc1Nc1c(Nc2cccc(Br)c2)c(=O)c1=O", "IC50", "> 30 µM"),
    ("O=C(Nc1cccc(Br)c1)Nc1cc(Cl)ccc1-c1nc(=O)o[nH]1", "IC50", "4.6 µM"),
    ("O=C(O)CCc1ccc(Cl)cc1NC(=O)Nc1cccc(Br)c1", "IC50", "> 30 µM"),
]

Given the entry O=C(Nc1cccc(Br)c1)Nc1cc(Cl)ccc1S(=O)(=O)O , report its measured IC50.
1.5 µM

Can you handle O=C(Nc1cccc(Br)c1)Nc1cc(Cl)ccc1[N+](=O)[O-] next?
> 3 µM

// repeat for Nc1ccc(Cl)cc1NC(=O)Nc1cccc(C(F)(F)F)c1 and report
> 30 µM

What do we get for O=C(Nc1cccc(Br)c1)Nc1cc(Cl)ccc1-c1nnn[nH]1 ?
2 µM

Follow-up entry: N#Cc1ccc(Cl)cc1NC(=O)Nc1cccc(C(F)(F)F)c1
> 3 µM

Now this one: O=C(Nc1cccc(C(F)(F)F)c1)Nc1cc(Cl)ccc1O
> 30 µM

###

system: Mus musculus; experiment: Effect on ATPA-induced rigidity in mouse dosed intravenously 30 mins before ATPA administration; assay type: functional; details: iv
recorded metric: ED50

Some entries whose results are on file:
# sample smiles, ED50
rows = [
    ("O=C(O)Cc1ccc(Cl)cc1NC(=O)Nc1cccc(Br)c1", "> 30 mg/kg"),
    ("O=C(Nc1cccc(Br)c1)Nc1cc(Cl)ccc1-c1nc(=O)o[nH]1", "> 100 mg/kg"),
]

Alright, here's another molecule for you.
ED50 lookup needed for O=C(Nc1ccc2ccccc2c1)Nc1cc(Cl)ccc1C(=O)O , thanks.
> 30 mg/kg

###

Examples of compounds with documented pIC50 follow.
biological target: Glutamate receptor ionotropic, kainate 1 (Homo sapiens); assay: Antagonist activity at human homomeric GluR5 expressed in HEK293 cells assessed as inhibition of intracellular calcium concentration by FLIPR assay; type: functional, cell-based
pIC50: −log10 of the molar value.

In the examples that follow, each entry is paired with its recorded pIC50.
# sample smiles, pIC50
rows = [
    ("O=C(Nc1cccc(Br)c1)n1[nH]c(=O)c2ccc(Cl)cc21", "< 4.30"),
    ("O=C(Nc1cccc(C(F)(F)F)c1)Nc1cc(Cl)ccc1CO", "< 5.00"),
    ("O=C(O)Cc1ccc(Cl)cc1NC(=O)Nc1cccc(Br)c1", 5.44),
]

Give the reported pIC50 for O=C(Nc1cccc(Br)c1)Oc1cc(Cl)ccc1C(=O)O (system: Glutamate receptor ionotropic, kainate 1 (Homo sapiens)).
< 4.52

Could you do the same for COC(=O)c1ccc(Cl)cc1NC(=O)Nc1cccc(Br)c1 , please?
< 4.52

Another compound to check: O=C(Nc1cccc(C(F)(F)F)c1)Nc1cc(Cl)ccc1[N+](=O)[O-]
< 5.52
